Entry source: patent US10034886B2

Collected pEC50 values appear next to each entry.
Subject of test: GLP-1R (Homo sapiens)
Construct: host or cells: GLP-1R CRE-bla CHO-K1 cells
Assay remarks: EC20 GLP-1(9-36) PAM cAMP assay: dose response of compound in the presence of fixed concentration of GLP-1(9-36)
Assay type: cell-based
Protocol conditions: dose response of compound in presence of fixed concentration of GLP-1(9-36), GLP-1R CRE-bla CHO-K1 cells, read-out: EC20 GLP-1(9-36) PAM EC50
pEC50: −log10 of the molar value.

Here are 2 compounds together with their reported answers.
* CC(C)(C)c1ccc(C(=O)N[C@@H](Cc2ccc(-c3ncc(-c4ccc(OC(F)=C(F)F)cc4)cn3)cc2)C(=O)NCCC(=O)O)cc1 [Compound 691] | 5.30 to 5.60
* CCC(CC)Oc1ccc(-c2cnc(-c3ccc(C[C@H](NC(=O)c4ccc(C(C)(C)C)s4)C(=O)N4CC(C(=O)O)C4)cc3)nc2)cc1 [Compound 919] | 5.00 to 5.30

Let's switch to this compound now.
Lookup: For the compound CCCCCCCOc1ccc(-c2cnc(-c3ccc(C[C@H](NC(=O)c4ccc(C(C)(C)C)cc4)C(=O)N[C@@H](CC(=O)NCC(N)=O)C(=O)O)cc3)nc2)cc1 [Compound 482] , what pEC50 is on record?
Found: > 6.10

---

Subject of test: GLP-1R (Homo sapiens)
Construct: host or cells: GLP-1R CRE-bla CHO-K1 cells
Assay remarks: EC20 GLP-1(9-36) PAM cAMP assay: dose response of compound in the presence of fixed concentration of GLP-1(9-36)
Type: cell-based
Protocol conditions: dose response of compound in presence of fixed concentration of GLP-1(9-36), GLP-1R CRE-bla CHO-K1 cells, read-out: EC20 GLP-1(9-36) PAM EC50
pEC50: −log10 of the molar value.
Reported pEC50 is given for each of the following molecules.

- CCCCCCCOc1ccc(-c2cnc(-c3ccc(C[C@H](NC(=O)c4ccc(C(C)(C)C)cc4)C(=O)N[C@@H](CC(=O)NCCN)C(=O)O)cc3)nc2)cc1 [Compound 484]: 5.60 to 6.10
- CCCCCCCOc1ccc(-c2cnc(-c3ccc(C[C@H](NC(=O)CN(C)C)C(=O)N[C@H](C)C(=O)O)cc3)nc2)cc1 [Compound 826]: 5.30 to 5.60

Lookup: So what pEC50 did CCCCCCCOc1ccc(-c2cnc(-c3ccc(C[C@H](NC(=O)c4ccc(C(C)(C)C)s4)C(=O)NC(C(=O)O)c4c(C)n[nH]c4C)cc3)nc2)cc1 (stereo partly drawn) [Compound 598] get with GLP-1R (Homo sapiens)?
Found: > 6.10

---

Reported EC50 values are given for each entry in this list.
Subject of test: GLP-1R (Homo sapiens, UniProt P43220)
Construct: host or cells: GLP-1R CRE-bla CHO-K1 cells
Sequence (P43220 24-463): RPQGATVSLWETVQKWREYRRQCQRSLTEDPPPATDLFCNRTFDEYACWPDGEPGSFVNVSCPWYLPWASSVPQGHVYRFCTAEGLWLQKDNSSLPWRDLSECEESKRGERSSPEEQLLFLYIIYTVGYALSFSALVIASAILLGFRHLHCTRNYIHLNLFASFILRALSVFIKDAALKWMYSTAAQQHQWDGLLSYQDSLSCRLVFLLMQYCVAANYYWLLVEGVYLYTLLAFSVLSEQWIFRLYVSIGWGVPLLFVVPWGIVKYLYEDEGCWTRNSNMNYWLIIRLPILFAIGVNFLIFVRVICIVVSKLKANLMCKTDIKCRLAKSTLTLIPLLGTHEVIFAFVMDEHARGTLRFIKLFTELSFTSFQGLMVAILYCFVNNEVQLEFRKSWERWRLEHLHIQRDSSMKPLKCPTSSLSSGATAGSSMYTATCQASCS
Sequence (P01275 100-127 partner limits assumed): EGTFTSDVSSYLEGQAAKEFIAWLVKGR
Assay remarks: EC20 GLP-1(9-36) PAM cAMP assay: dose response of compound in the presence of fixed concentration of GLP-1(9-36)
Assay type: cell-based
Protocol conditions: GLP-1R CRE-bla CHO-K1 cells, compound dose response with fixed concentration of GLP-1(9-36), read-out: EC20 GLP-1(9-36) PAM EC50

// worked examples, EC50 included
- C[C@@H](NC(=O)[C@H](Cc1ccc(-c2ncc(/C=C/c3ccsc3)cn2)cc1)NC(=O)c1ccc(C(C)(C)C)s1)C(=O)O: 2500 to 5000 nM
- CCC[C@H]1CC[C@H](c2ccc(-c3cnc(-c4ccc(C[C@H](NC(=O)c5ccc(C(C)(C)C)s5)C(=O)N5CC(C(=O)O)C5)cc4)nc3)cc2)CC1: < 800 nM
- CC[C@H]1CC[C@H](c2ccc(-c3cnc(-c4ccc(C[C@H](NC(=O)c5ccc(C(C)(C)C)s5)C(=O)N[C@H](Cc5c[nH]cn5)C(=O)O)cc4)nc3)cc2)CC1: < 800 nM
- CCOc1ccc(C(=O)N[C@@H](Cc2ccc(-c3ncc(-c4ccc(OCCCC(C)C)cc4)cn3)cc2)C(=O)N2CC(C(=O)O)C2)cc1: 800 to 2500 nM

From here, focus on the item given below.
Lookup: If you can, please state the reported EC50 value of Cc1ccc(S(=O)(=O)N2CC=C(c3cnc(-c4ccc(C[C@H](NC(=O)c5ccc(C(C)(C)C)s5)C(=O)N[C@H](C)C(=O)O)cc4)nc3)CC2)cc1 .
Found: 2500 to 5000 nM

---

Subject of test: GLP-1R (Homo sapiens)
Construct: host or cells: GLP-1R CRE-bla CHO-K1 cells
Assay remarks: EC20 GLP-1(9-36) PAM cAMP assay: dose response of compound in the presence of fixed concentration of GLP-1(9-36)
Type: cell-based
Protocol conditions: GLP-1R CRE-bla CHO-K1 cells, compound dose response with fixed concentration of GLP-1(9-36), read-out: EC20 GLP-1(9-36) PAM EC50
As shown below, each of these molecules has a reported EC50 value.

• CCCc1cnc(C2CCN(c3cnc(-c4ccc(C[C@H](NC(=O)c5ccc(C(C)(C)C)s5)C(=O)N5CC(C(=O)O)C5)cc4)nc3)CC2)nc1 = 2.5 to 5 µM
• CCC[C@H]1CC[C@H](C2CCN(c3cnc(-c4ccc(C[C@H](NC(=O)c5ccc(OC(C)(C)C)cc5)C(=O)N5CC(C(=O)O)C5)cc4)nc3)CC2)CC1 = < 0.8 µM
• CCCc1ccc(C2CCN(c3cnc(-c4ccc(C[C@H](NC(=O)c5ccc(C(C)(C)C)s5)C(=O)N5CC(C(=O)O)C5)cc4)nc3)C2)cc1 (stereo partly drawn) = 0.8 to 2.5 µM

Lookup: Reported EC50, molecule CCC[C@H]1CC[C@H](C2CCN(c3cnc(-c4ccc(C[C@H](NC(=O)c5ccc(C6CC6)s5)C(=O)N5CC(C(=O)O)C5)cc4)nc3)CC2)CC1 : ____
Found: < 0.8 µM

Lookup: Recorded EC50 for CCC[C@H]1CC[C@H](C2CCN(c3cnc(-c4ccc(C[C@H](NC(=O)c5ccc(OC(C)C)cc5)C(=O)N5CC(C(=O)O)C5)cc4)nc3)CC2)CC1 , please?
Found: 0.8 to 2.5 µM

Lookup: For CCC[C@H]1CC[C@H](C2CCN(c3cnc(-c4ccc(C[C@H](NC(=O)c5ccc(C(C)(C)C)cc5)C(=O)N5CC(C(=O)O)C5)cc4)nc3)CC2)CC1 , what is its reported EC50?
Found: < 0.8 µM

Lookup: If you can, please state the reported EC50 value of CCCc1ccc(C(=O)N[C@@H](Cc2ccc(-c3ncc(N4CCC([C@H]5CC[C@H](CCC)CC5)CC4)cn3)cc2)C(=O)N2CC(C(=O)O)C2)cc1 .
Found: < 0.8 µM

Lookup: Sample CCC[C@H]1CC[C@H](C2CCN(c3cnc(-c4ccc(CC(NC(=O)c5ccc(C(C)(C)C)s5)C(=O)NS(=O)(=O)CC)cc4)nc3)CC2)CC1 (stereo partly drawn) — what was its EC50?
Found: 2.5 to 5 µM

Lookup: Returns the measured EC50 for the input molecule. Input: CCCC1CCN(C(=O)C(C)(C)CNc2cnc(-c3ccc(C[C@H](NC(=O)c4ccc(C(C)(C)C)s4)C(=O)N4CC(C(=O)O)C4)cc3)nc2)CC1
Found: 2.5 to 5 µM

Lookup: Which measured EC50 value corresponds to C[C@@H](NC(=O)[C@H](Cc1ccc(-c2ncc(/C=C/CCCc3ccccc3)cn2)cc1)NC(=O)c1ccc(C(C)(C)C)s1)C(=O)O ?
Found: 0.8 to 2.5 µM

Lookup: Sample C[C@@H](NC(=O)[C@H](Cc1ccc(-c2ncc(-c3ccc(-c4ccc(C#N)cc4)cc3)cn2)cc1)NC(=O)c1ccc(C(C)(C)C)s1)C(=O)O — what was its EC50?
Found: 0.8 to 2.5 µM

---

Subject of test: GLP-1R (Homo sapiens, UniProt P43220)
Construct: host or cells: GLP-1R CRE-bla CHO-K1 cells
Assay remarks: EC20 GLP-1(9-36) PAM cAMP assay: dose response of compound in the presence of fixed concentration of GLP-1(9-36)
Assay type: cell-based
Protocol conditions: GLP-1R CRE-bla CHO-K1 cells, compound dose response with fixed concentration of GLP-1(9-36), read-out: EC20 GLP-1(9-36) PAM EC50
pEC50: −log10 of the molar value.
Experimental readout: pEC50

Examples from the recorded data:
* CCCOc1ccc(-c2ccc(-c3cnc(-c4ccc(C[C@H](NC(=O)c5ccc(C(C)(C)C)s5)C(=O)N[C@H](C)C(=O)O)cc4)nc3)cc2)cc1 | 5.60 to 6.10
* CC[C@H]1CC[C@H](c2ccc(-c3cnc(-c4ccc(C[C@H](NC(=O)c5ccc(C(C)(C)C)s5)C(=O)NCCC(=O)O)cc4)nc3)cc2)CC1 | > 6.10
* CC[C@H]1CC[C@H](c2ccc(-c3cnc(-c4ccc(C[C@H](NC(=O)c5ccc(C(C)=O)cc5)C(=O)O)cc4)nc3)cc2)CC1 | 5.60 to 6.10
* CCC[C@H]1CC[C@H](C2CCN(c3cnc(-c4ccc(C[C@H](NC(=O)c5ccc(C(C)(C)C)s5)C(=O)NCCC(=O)O)cc4)nc3)CC2)CC1 | > 6.10

Lookup: Request body: readout pEC50, system GLP-1R (Homo sapiens, UniProt P43220), query CCC[C@H]1CC[C@H](C2CCN(c3cnc(-c4ccc(C[C@H](NC(=O)c5ccc(C(C)(C)C)s5)C(=O)NCC(=O)O)cc4)nc3)CC2)CC1 . Return the value.
Found: > 6.10

Lookup: What measured pEC50 is associated with C[C@@H](NC(=O)[C@H](Cc1ccc(-c2ncc(/C=C/c3ccc(C(F)(F)F)cc3)cn2)cc1)NC(=O)c1ccc(C(C)(C)C)s1)C(=O)O on GLP-1R (Homo sapiens, UniProt P43220)?
Found: 5.60 to 6.10

Lookup: Query the reported pEC50 for GLP-1R (Homo sapiens, UniProt P43220); item: C[C@@H](NC(=O)[C@H](Cc1ccc(-c2ncc(-c3ccc(-c4ccccc4)cc3F)cn2)cc1)NC(=O)c1ccc(C(C)(C)C)s1)C(=O)O
Found: > 6.10

Lookup: Please provide the recorded pEC50 for C[C@@H](NC(=O)[C@H](Cc1ccc(-c2ncc(N3CCN(CC4CCCCC4)C3=O)cn2)cc1)NC(=O)c1ccc(C(C)(C)C)s1)C(=O)O , tested on GLP-1R (Homo sapiens, UniProt P43220).
Found: 5.00 to 5.30

Lookup: Identify the measured pEC50 of CC(C)(C)c1ccc(C(=O)NC(Cc2ccc(-c3ncc(N4CCC(c5ccccc5F)CC4)cn3)cc2)C(=O)N2CC(C(=O)O)C2)s1 (stereo not shown) for GLP-1R (Homo sapiens, UniProt P43220).
Found: 5.60 to 6.10

Lookup: Item CCCOc1ccc(C(=O)N[C@@H](Cc2ccc(-c3ncc(-c4ccc([C@H]5CC[C@H](CC)CC5)cc4)cn3)cc2)C(=O)O)cc1 with GLP-1R (Homo sapiens, UniProt P43220) - pEC50?
Found: 5.60 to 6.10

Lookup: So what pEC50 did CCOc1ccc(-c2ccc(-c3cnc(-c4ccc(C[C@H](NC(=O)c5ccc(C(C)(C)C)s5)C(=O)N5CC(C(=O)O)C5)cc4)nc3)c(F)c2)cc1 get with GLP-1R (Homo sapiens, UniProt P43220)?
Found: > 6.10

Lookup: Lab request: please report pEC50 under test system GLP-1R (Homo sapiens, UniProt P43220) for CCC[C@H]1CC[C@H](C2CCN(c3cnc(-c4ccc(C[C@H](NC(=O)c5ccc(C(C)(C)C)s5)C(=O)N[C@@H](CO)C(=O)O)cc4)nc3)CC2)CC1
Found: > 6.10

Lookup: Please tell me: pEC50 of CCc1ccc(C(=O)N[C@@H](Cc2ccc(-c3ncc(-c4ccc([C@H]5CC[C@H](CC)CC5)cc4)cn3)cc2)C(=O)O)cc1 , system GLP-1R (Homo sapiens, UniProt P43220)?
Found: 5.60 to 6.10
